The entries that follow carry Ki values tested on UniProt P21917, drawn from several published reports.
Provide only the numeric value, understood in nM.

Q) Form field: Ki recorded for c1ccc(C2=N[C@@H](CN3CCN(c4ccccc4)CC3)CO2)cc1 (stereo in doubt) with UniProt P21917 (enter value)
A) 410

Q) Form field: Ki recorded for O=c1ccc2ccc(CN3CCC(c4ccccc4)CC3)cc2o1 with UniProt P21917 (enter value)
A) 19

Q) Form field: Ki recorded for COc1ccc(NC(=O)NCCCN2CCN(c3ccccc3OC)CC2)cc1-c1ccc(F)cc1 with UniProt P21917 (enter value)
A) 5.8

Q) Form field: Ki recorded for O=C(NCCCCN1CCN(c2cc3ccc2CCc2ccc(cc2)CC3)CC1)c1cc2ccccc2s1 with UniProt P21917 (enter value)
A) 880

Q) Form field: Ki recorded for COc1ccccc1OCCNC[C@@H](O)c1ccc(O)c(O)c1 with UniProt P21917 (enter value)
A) 240

Q) Form field: Ki recorded for Cc1c(Cl)cccc1NC(=O)CN1CCC(OCc2ccc(Cl)c(F)c2)CC1 with UniProt P21917 (enter value)
A) 441

Q) Form field: Ki recorded for COc1ccccc1N1CCN(CCCCNC(=O)/N=N/c2cc(F)c(F)c(F)c2)CC1 with UniProt P21917 (enter value)
A) 47

Q) Form field: Ki recorded for Cn1cc(CN2CCC(O)(c3ccc(Cl)cc3)CC2)c2ccccc21 with UniProt P21917 (enter value)
A) 5140

Q) Form field: Ki recorded for CCCCn1cc(CCCCOc2ccc(CN3CCN(c4ccccc4OC)CC3)cc2OC)nn1 with UniProt P21917 (enter value)
A) 13

Q) Form field: Ki recorded for Fc1ccc(-c2cccc3c(CN4CCN(c5ccc(Cl)cc5)CC4)cnn23)cc1 with UniProt P21917 (enter value)
A) 29

Q) Form field: Ki recorded for Cn1cnc2cc(CN3CCC(OCc4ccc(F)c(F)c4)CC3)ccc21 with UniProt P21917 (enter value)
A) 1400

---

The entries that follow carry pKi values tested on D(4) dopamine receptor (Homo sapiens, UniProt P21917), drawn from several published reports.
Sequence (P21917 whole entry): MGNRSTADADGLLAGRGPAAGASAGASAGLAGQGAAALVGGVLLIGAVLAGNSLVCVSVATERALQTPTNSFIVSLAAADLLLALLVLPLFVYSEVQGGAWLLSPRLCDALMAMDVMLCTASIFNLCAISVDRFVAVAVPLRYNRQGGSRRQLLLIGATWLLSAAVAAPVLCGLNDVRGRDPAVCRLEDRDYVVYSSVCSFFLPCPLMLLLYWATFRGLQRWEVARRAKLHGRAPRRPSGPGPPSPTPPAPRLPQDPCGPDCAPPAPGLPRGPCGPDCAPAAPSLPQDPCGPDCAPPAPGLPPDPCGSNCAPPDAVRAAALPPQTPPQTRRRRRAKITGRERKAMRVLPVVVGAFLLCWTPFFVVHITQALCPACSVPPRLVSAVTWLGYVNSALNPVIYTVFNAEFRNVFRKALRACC
Would you please state pKi, meaning minus log10 of the concentration in mol/L, as a bare number?

C[C@H]1CC[C@H](C)N1CCCOc1ccc(-c2ccc(C(=O)N3CCOCC3)cc2)cc1: 5.01
COc1ccc(C2NCCc3c2[nH]c2ccc(F)cc32)c(O)c1 (centres undefined): 6.44
COc1ccccc1N1CCN(CCCCC2CCCc3c(OC)cccc32)CC1 (centres undefined): 7.37
COc1cc(CN2CCN(c3ccccc3OC)CC2)ccc1OCCF: 8.74
O=C(O)[C@@H]1Cc2ccccc2N1C(=O)CN1CCN(Cc2ccc(Cl)cc2)CC1: 5.75
COc1cc(C(=O)NCCCCN2CCN(c3ccccc3OC)CC2)ccc1OCCCc1cn(CCCCCCCCn2cc(CCCOc3ccc(C(=O)NCCCCN4CCN(c5ccccc5OC)CC4)cc3OC)nn2)nn1: 6.18

Q) Form field: pKi recorded for CC(C)c1ccc(Cl)cc1CN1CCN(CC(=O)N2c3ccccc3C[C@H]2C)CC1 with D(4) dopamine receptor (Homo sapiens, UniProt P21917) (enter value)
A) 8.00

Q) Form field: pKi recorded for Fc1ccc(N2CCN(CCC3OCCc4ccccc43)CC2)cc1 (centres undefined) with D(4) dopamine receptor (Homo sapiens, UniProt P21917) (enter value)
A) 8.52

Q) Form field: pKi recorded for C#CC1=CC[C@@H](N(CCC)CCCCNC(=O)c2cc3ccccn3n2)CC1 with D(4) dopamine receptor (Homo sapiens, UniProt P21917) (enter value)
A) 6.96

Q) Form field: pKi recorded for OC1(c2ccc(Cl)cc2)CCN(Cc2c[nH]c3ncccc23)C1 (centres undefined) with D(4) dopamine receptor (Homo sapiens, UniProt P21917) (enter value)
A) 5.92

Q) Form field: pKi recorded for O=Cc1cnn2ccc(-n3cc(CCN4CCN(c5cccc(Cl)c5Cl)CC4)nn3)cc12 with D(4) dopamine receptor (Homo sapiens, UniProt P21917) (enter value)
A) 5.52
